Value source: paper PMC9133015

Molecular target: DYRK2 (Homo sapiens, UniProt Q92630)
Construct: purchased Reaction Biology Corporation (assay service)
Sequence (Q92630 whole entry): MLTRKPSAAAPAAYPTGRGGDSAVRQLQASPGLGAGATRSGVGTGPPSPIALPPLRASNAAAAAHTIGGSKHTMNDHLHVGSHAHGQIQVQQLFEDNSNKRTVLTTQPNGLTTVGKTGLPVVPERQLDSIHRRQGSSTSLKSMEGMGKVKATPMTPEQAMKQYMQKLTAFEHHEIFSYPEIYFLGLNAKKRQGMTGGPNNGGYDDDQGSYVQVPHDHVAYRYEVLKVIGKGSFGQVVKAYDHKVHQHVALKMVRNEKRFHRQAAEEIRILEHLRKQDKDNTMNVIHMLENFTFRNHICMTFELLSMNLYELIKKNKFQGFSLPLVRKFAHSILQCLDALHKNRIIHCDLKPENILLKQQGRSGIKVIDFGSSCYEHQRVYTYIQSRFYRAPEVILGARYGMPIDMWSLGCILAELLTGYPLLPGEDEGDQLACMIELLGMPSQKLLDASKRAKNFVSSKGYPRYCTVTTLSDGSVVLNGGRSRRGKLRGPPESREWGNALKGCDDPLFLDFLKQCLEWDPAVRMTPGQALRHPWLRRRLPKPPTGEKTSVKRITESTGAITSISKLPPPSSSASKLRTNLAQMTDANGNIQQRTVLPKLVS
Experiment: DYRKs kinase activity assay (33P-ATP, DYRKtide substrate): DYRK2
Type: biochemical
Details: DYRK2 kinase; Conc. 10 µM; duplicate values; read-out: % Inhibition
measurement_type: inhibition at 10 µM (%)

smiles_representation=Cl.Fc1cnc(Nc2ccc(CN3CCNCC3)cn2)nc1-c1ccc2ncsc2c1 tested_on="DYRK2 (Homo sapiens, UniProt Q92630)" reported=93.9
smiles_representation=Cl.Fc1cnc(Nc2ccc(N3CCNCC3)cn2)nc1-c1ccc2ncsc2c1 tested_on="DYRK2 (Homo sapiens, UniProt Q92630)" reported=96.6
smiles_representation=CCN1CCN(Cc2ccc(Nc3ncc(F)c(-c4cnc5ccnn5c4)n3)nc2)CC1 tested_on="DYRK2 (Homo sapiens, UniProt Q92630)" reported=28
smiles_representation=CCN1CCN(C(=O)c2ccc(Nc3ncc(F)c(-c4ccc5nc(C)sc5c4)n3)nc2)CC1 tested_on="DYRK2 (Homo sapiens, UniProt Q92630)" reported=96.2

P: CCN1CCN(Cc2ccc(Nc3ncc(F)c(-c4ccc5ncsc5c4)n3)nc2)CC1
Q: CCN1CCN(C(=O)c2ccc(Nc3nc(-c4ccc5nc(N(C)C)sc5c4)c4sccc4n3)nc2)CC1
QUERY: Which entry shows the lesser value of inhibition at 10 µM here, P or Q ? The response must carry the label of the picked entry.
RESULT: Q
(Q: 7.66%, P: 76.9%)

a: CCN1CCN(C(=O)c2cnc(Nc3ncc(F)c(-c4ccc5ncsc5c4)n3)nc2)CC1
b: CC(C)(C)OC(=O)N1CCN(Cc2ccc(Nc3ncc(F)c(-c4ccc5ncsc5c4)n3)nc2)CC1
QUERY: Which entry shows the lesser value of inhibition at 10 µM here, a or b ? The response must carry the label of the picked entry.
RESULT: b
